The measurements presented in this section are drawn from PubChem BioAssay (NCATS).

assay: qHTS of pediatric cancer cell lines to identify multiple opportunities for drug repurposing: Confirmatory screen for U-2 OS cells (AID 1347122); conditions: U-2 OS osteosarcoma cell viability; series mostly up to 45.9 µM; also: nearly all actives have a fitted effect of over 65% in size; also: potency is read from the fitted curve at half-maximal effect
Records with an inconclusive call do not appear. Calls of active or inactive are those of the source. Calls follow the shape of the dose curve; as a rule, active = well fitted cell-killing curve with a large enough effect; inconclusive = small, poorly fitted or top-dose-only effect; inactive = no such curve, though single readings can be large or run the other way.
Reported Property: Potency

Before answering, review these 6 worked examples.
# Compound, Potency
records = [
    ("COc1ccc(C(=O)N2CCCC2=O)cc1", "inactive"),
    ("CCCCCCCCC(=O)NCc1ccc(O)c(OC)c1", "inactive"),
    ("CN1[C@@H]2CC[C@H]1CC(OC(=O)c1cc(Cl)cc(Cl)c1)C2 (some centres not stated)", "inactive"),
    ("COc1ccc2c(C(=O)c3ccc(Cl)cc3)c(C)n(CC(=O)O)c2c1", "inactive"),
    ("C[C@@H]1C[C@@H]([C@H](O)CC2CC(=O)NC(=O)C2)C(=O)[C@@H](C)C1", "3.29 µM (active)"),
    ("CCCCCCCCCCCC[N+](C)(C)CCOc1ccccc1", "13.1 µM (active)"),
]

Okay, next one:
## Input Report Potency for COC(=O)C1=CCCN(C)C1
## Output inactive
